- measured.target: T1, human IL-11 (human, UniProt P20809 22-199)
- T1 sequence: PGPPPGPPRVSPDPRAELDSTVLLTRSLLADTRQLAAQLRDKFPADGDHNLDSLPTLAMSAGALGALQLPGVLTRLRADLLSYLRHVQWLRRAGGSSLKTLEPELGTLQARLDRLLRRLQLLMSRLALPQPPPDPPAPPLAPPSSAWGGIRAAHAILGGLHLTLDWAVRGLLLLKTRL
- method.notes: cell-based or functional assay
Collected RGA Efficacy (%) values appear next to each entry.
Please reply with the bare figure in % and do not write the unit itself.

Input: Please report the recorded RGA Efficacy (%) for TPP-29391 (antibody, human IgG1, V domains shown) VH: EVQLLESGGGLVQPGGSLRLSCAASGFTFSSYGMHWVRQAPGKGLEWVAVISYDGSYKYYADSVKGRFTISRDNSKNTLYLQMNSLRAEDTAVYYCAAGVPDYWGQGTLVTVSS VL: QSVLTQPPSASGTPGQRVTISCSGSSSNIGSDYDVHWYQQLPGTAPKLLIYSNNERPSGVPDRFSGSKSGTSASLAISGLRSEDEADYYCAAWDSSLYGPVFGGGTKLTVL .
Output: 84

Input: Please report the recorded RGA Efficacy (%) for TPP-29382 (antibody, human IgG1, V domains shown) VH: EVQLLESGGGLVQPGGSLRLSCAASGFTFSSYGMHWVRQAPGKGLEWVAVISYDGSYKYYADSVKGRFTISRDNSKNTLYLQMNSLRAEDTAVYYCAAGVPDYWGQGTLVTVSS VL: QSVLTQPPSASGTPGQRVTISCSGSSSNIGSDLDVHWYQQLPGTAPKLLIYSNNERPSGVPDRFSGSKSGTSASLAISGLRSEDEADYYCAAWDFSLYGPVFGGGTKLTVL .
Output: 81.4

Input: Please report the recorded RGA Efficacy (%) for TPP-29389 (antibody, human IgG1, V domains shown) VH: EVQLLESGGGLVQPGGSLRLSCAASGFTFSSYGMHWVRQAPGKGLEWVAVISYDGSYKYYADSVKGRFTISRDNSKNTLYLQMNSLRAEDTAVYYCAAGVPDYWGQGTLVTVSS VL: QSVLTQPPSASGTPGQRVTISCSGSSSNIGSYYDVHWYQQLPGTAPKLLIYSNEERPSGVPDRFSGSKSGTSASLAISGLRSEDEADYYCAAWDPSLYGPVFGGGTKLTVL .
Output: 87.3
